For each record, write down the corresponding melting point.

These solved cases illustrate the format of a correct answer.
INSERT INTO measurements (compound, result) VALUES
  ('CCCCc1nc2c(N)nc3ccccc3c2n1CCCC(=NO)c1ccccc1', '242 to 244 °C'),
  ('CCOCc1nc2c(N)nc3ccccc3c2n1CCCC(C)N(OC)S(C)(=O)=O (centres unmarked)', '146 to 148 °C'),
  ('CCCCc1nc2c(N)nc3cccnc3c2n1CCC/C(C)=N/OC', '132 to 134 °C'),
  ('CCCc1nc2c(N)nc3cccnc3c2n1CCCCN(OC)C(=O)c1ccccc1', '125 to 127 °C'),
  ('CCc1nc2c(N)nc3ccccc3c2n1CCCNOC', '210 to 213 °C'),
  ('CCOCc1nc2c(N)nc3ccccc3c2n1C/C(CC)=N/OC', '175 to 178 °C'),
  ('CON(CCCCn1c(C)nc2c(N)nc3ccccc3c21)S(C)(=O)=O', '201 to 203 °C'),
  ('CCCc1nc2c(N)nc(C)c(C)c2n1CCCCN(O)C(=O)OC(C)(C)C', '157 to 158.5 °C');

Quick batch: melting point for everything below.
1. CCCc1nc2c(N)nc(C)c(C)c2n1CCCCN(O)C(=O)NC(C)C
2. CCCCc1nc2c(N)nc3ccccc3c2n1CCC/C=N/OC
3. CCCc1nc2c(N)nc3ccccc3c2n1CCCC(CC(C)C)=NO
4. CC(CCCn1c(C)nc2c(N)nc3ccccc3c21)=NOCc1ccccc1
5. CCCc1nc2c(N)nc(C)c(C)c2n1CCCCN(O)C(C)=O
6. CCCc1nc2c(N)nc3ccccc3c2n1CCCC(C)N(OC)C(=O)NC1CCCC1 (centres unmarked)

Result:
["138.5 to 140 °C", "153 to 155 °C", "207 to 209 °C", "146 to 148 °C", "164 to 166 °C", "182 to 184 °C"]

Answer for every listed entry: what is its melting point? The entries follow.
1. CCOCc1nc2c(N)nc3cccnc3c2n1CCCCN(OC)C(C)=O
2. CON=C(C)CCCn1c(C)nc2c(N)nc3ccccc3c21
3. CON=C(C)CC(C)(C)Cn1c(C)nc2c(N)nc3ccccc3c21

Result:
1: 180 to 181 °C; 2: 158 to 161 °C; 3: 193 to 195 °C
